Cited source: ChEMBL document CHEMBL5058577

Test system: Fibroblast
test details: Multiplex assay against human fibroblast
Assay type: toxicity, cell-based
experimental parameters: 12 h, 1 µM, compound concentration 1 uM, replicate 2
The compounds listed here are annotated with their Population Healthy Nuclei (%).
Numbers only here, please. The scale is %.

Reference set, count: 7
Cc1ccc(OCC(O)C(C)NC(C)C)c2c1CCC2.Cl (stereo not drawn)    55
CC(C)(C)c1ccc(CSc2cnn(C(C)(C)C)c(=O)c2Cl)cc1    47
CN1CCN2c3ccccc3Cc3ccccc3C2C1.Cl (stereo not drawn) [MIANSERIN HYDROCHLORIDE]    50
CC(C)C[C@H](CO)Nc1nc(S[C@@H](C)c2ccccc2)nc2nc(N)sc12    55
O=C(NCCNCC(O)COc1ccc(O)cc1)N1CCOCC1.O=C(NCCNCC(O)COc1ccc(O)cc1)N1CCOCC1.O=C(O)/C=C/C(=O)O (stereo not drawn) [XAMOTEROL FUMARATE]    53
CCC(=O)OCC(=O)[C@@]1(OC(=O)CC)[C@@H](C)C[C@H]2[C@@H]3CCC4=CC(=O)C=C[C@]4(C)[C@@]3(Cl)[C@@H](O)C[C@@]21C [BECLOMETHASONE DIPROPIONATE]    40
Nc1nc(-c2ccco2)c2cnn(Cc3ccccc3F)c2n1    50

Bench note: what Population Healthy Nuclei (%) did Cc1cc(O)c(-c2ccc([C@@H](C)CN(C)C)cc2)c2c1[nH]c(=O)c1sccc12 show?
56
